Would you kindly list IC50 for each of these binders?
target: T1, HIV-1 YU-2 gp120 (wild-type gp120YU-2, monomeric) (HIV-1 (YU-2), UniProt P35961 32-498); assay: SPR competition, sCD4 inhibition: inhibition of gp120 binding to immobilized sCD4
T1 construct: domain: gp120; only gp120 stood in the assay
Starred links: 1 amine or outer side, 2 acyl side, 3 side chain; linkers in the order of their positions; H or OH if unused. Positions of bridges follow the written chain, without caps; N, C: chain ends. Non-standard residues stand in square brackets, D forms with d. No end group written: not given here. X2 = (2S,4S)‑4‑(4-ferrocenyl-1H-1,2,3-triazol-1-yl)pyrrolidine‑2‑carboxylic acid, O=C([C@@H]1C[C@H](n2cc(-[c-]3cccc3)nn2)CN1[*:1])[*:2].[Fe+2].c1cc[cH-]c1; Pro(cis-4-Trz(4-CH2CH2Ph)) = O=C(O)[C@@H]1C[C@H](n2cc(CCc3ccccc3)nn2)CN1; Dab = NCC[C@H](N)C(=O)O
Your answer is read as nM, so omit the unit and give the number.

INPUT: What value of measured IC50 is listed for DNI[Pro(cis-4-Trz(4-CH2CH2Ph))]W[Dab]-NH2 (lactam 1-6; N-terminus assumed; SMILES CC[C@H](C)[C@@H]1NC(=O)[C@H](CC(N)=O)NC(=O)[C@@H](N)CC(=O)NCC[C@@H](C(N)=O)NC(=O)[C@H](Cc2c[nH]c3ccccc23)NC(=O)[C@@H]2C[C@H](n3cc(CCc4ccccc4)nn3)CN2C1=O) [AAR032] ?
OUTPUT: 500

INPUT: Now consider DNI[X2]WK-NH2 (lactam 1-6, Ferrocenyl analogue of AAR029) [AAR029b] and answer again.
OUTPUT: 32
